Target: T1, human GM-CSFRα, full length on cells (human, UniProt P15509 23-400)
T1 sequence: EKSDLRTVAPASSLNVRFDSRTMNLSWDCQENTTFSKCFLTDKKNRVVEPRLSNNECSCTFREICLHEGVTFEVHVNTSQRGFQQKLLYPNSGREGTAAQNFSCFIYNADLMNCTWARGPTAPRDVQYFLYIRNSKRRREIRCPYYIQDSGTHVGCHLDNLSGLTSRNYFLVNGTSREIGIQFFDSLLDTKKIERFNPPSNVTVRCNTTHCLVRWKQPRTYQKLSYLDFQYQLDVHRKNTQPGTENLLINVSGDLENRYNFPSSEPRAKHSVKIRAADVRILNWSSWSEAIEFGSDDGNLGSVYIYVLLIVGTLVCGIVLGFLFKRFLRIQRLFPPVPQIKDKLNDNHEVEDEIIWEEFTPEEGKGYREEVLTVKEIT
Assay: cell-based or functional assay
QUANTITY_MEASURED: IC50, TF-1 cell proliferation (µg/mL)

E35-scFv LS52P (scFv, V domains shown) VH: QMQLVQSGAEVKKPGASVKVSCKVSGYTLTELSIHWVRQAPGKGLEWMGGFDPEDGETIYAQKFQGRVTMTGDTSTDTAYLELSSLRSEDTALYYCATGRYTSLATTYGFDYWGQGTLVTVSS VL: EIVMTQSPATLSLSPGERATLSCRASQSVSSYLAWYQQKPGQAPRLLIYGAPSRATGIPDRFSGSGSGTDFTLTISRLEPEDFAVYYCQQYDNWPYTFGQGTKLEIK = 1.05
E35-scFv HT30N (scFv, V domains shown) VH: QMQLVQSGAEVKKPGASVKVSCKVSGYTLNELSIHWVRQAPGKGLEWMGGFDPEDGETIYAQKFQGRVTMTGDTSTDTAYLELSSLRSEDTALYYCATGRYTSLATTYGFDYWGQGTLVTVSS VL: EIVMTQSPATLSLSPGERATLSCRASQSVSSYLAWYQQKPGQAPRLLIYGASSRATGIPDRFSGSGSGTDFTLTISRLEPEDFAVYYCQQYDNWPYTFGQGTKLEIK = 0.178
